Source listed as the OPERA property sets (Mansouri et al. 2018).

The threshold is 200 °C. Values of boiling point beneath it are tagged 1; values meeting or exceeding it are tagged -1.

Hello, is boiling point of the following compound strictly smaller than 200 °C? CCCCCCCCCCCCC1CCCCC1
-1

Hello, is boiling point of the following compound strictly smaller than 200 °C? C[Si](C)(C)Cl
1

Hello, is boiling point of the following compound strictly smaller than 200 °C? CCCCCCCCl
1

Hello, is boiling point of the following compound strictly smaller than 200 °C? Cc1cc(C)c([N+](=O)[O-])c(C)c1
-1

Hello, is boiling point of the following compound strictly smaller than 200 °C? C#CCCCCCCC
1

###

Please map values of log10 Henry constant (atm·m³/mol) to classes as shown: lower range = under -6, middle range = from -6 up to -3, upper range = -3 and over

Before answering, review these 2 worked examples.
compound	classification
CC1CCCCC1O (configuration not stated)	middle range
Cc1cccc2ccccc12	middle range

Kindly identify the class of CC(C)SC(C)C .
upper range

Kindly identify the class of ClC(Cl)=C(Cl)Cl .
upper range

Kindly identify the class of Clc1ccc2ccccc2c1 .
middle range

Kindly identify the class of C/C=C/C=C/C=O .
middle range

Kindly identify the class of CCCCO[N+](=O)[O-] .
upper range

Kindly identify the class of C[Se]C .
upper range

Kindly identify the class of CCc1cccc(O)c1 .
lower range

Kindly identify the class of Clc1cc(Cl)c(-c2cc(Cl)c(Cl)c(Cl)c2Cl)cc1Cl .
middle range

Kindly identify the class of COc1c(Cl)ccc(Cl)c1Cl .
middle range

Kindly identify the class of c1ccc2c(c1)cc1ccc3cccc4ccc2c1c34 .
lower range

Kindly identify the class of NCCN .
lower range

###

mol	ready biodegradability
CCCCCCCCCCCCCCCC(=O)O	readily biodegradable
O=C(O)c1ccc2c(c1)C(=O)OC2=O	readily biodegradable
Oc1cc(O)cc(O)c1	readily biodegradable

###

Mark criterion met for reported melting point of 100 °C or greater; mark criterion not met for anything smaller.

Before answering, review these 10 worked examples.
compound	classification
Clc1cc(Cl)c2oc3c(Cl)c(Cl)c(Cl)cc3c2c1	criterion met
COc1ccc(/C=N/NC(=O)c2ccncc2)cc1OC	criterion met
CCOc1ccc2ccccc2c1C=O	criterion met
CCN1C(=O)c2ccccc2C1=O	criterion not met
COc1ccc(CCNCC(O)COc2cccc(C)c2)cc1OC (centres undefined)	criterion met
O=C(NC(=O)c1c(F)cccc1F)Nc1ccc(Cl)cc1	criterion met
OC(O)C(Cl)(Cl)Cl	criterion not met
Oc1ccccc1N=Nc1ccccc1O	criterion met
COc1cc(/C=C/C(=O)CC(=O)/C=C/c2ccc(O)c(OC)c2)ccc1O	criterion met
CCOB(OCC)OCC	criterion not met

Determine whether measured melting point meets or exceeds 100 °C for O=Cc1ccc(F)cc1
criterion not met

Determine whether measured melting point meets or exceeds 100 °C for CCS(=O)(=O)C(C)(C)S(=O)(=O)CC
criterion met

Determine whether measured melting point meets or exceeds 100 °C for CCCCCCCCCCCC(=O)OCCOC(=O)CCCCCCCCCCC
criterion not met

Determine whether measured melting point meets or exceeds 100 °C for NCCCC(N)C(=O)O (centres undefined)
criterion met

###

Entries annotated with measured boiling point
Please give a number only; it is taken to be in °C.

compound	endpointUnit	obsValue
Cc1cc(O)c(C)c(C)c1C	°C	266
CC(C)CC(C)(C)O	°C	133
CC(Cl)(CCl)CCl	°C	162

Per the records, this compound ( O=C(O)C1CC1 ) has boiling point equal to 183

Per the records, this compound ( COc1ccccc1CO ) has boiling point equal to 249

Per the records, this compound ( CCCCCCCCC(C)=O ) has boiling point equal to 210

Per the records, this compound ( CC=CCCCCC ) has boiling point equal to 124

Per the records, this compound ( CCS ) has boiling point equal to 35.1

Per the records, this compound ( CCOc1ccc(Br)cc1 ) has boiling point equal to 231

Per the records, this compound ( C#COCC ) has boiling point equal to 50

Per the records, this compound ( O=COCCCc1ccccc1 ) has boiling point equal to 250

Per the records, this compound ( NCCO ) has boiling point equal to 171

Per the records, this compound ( C=CC(O)CCC (stereo not drawn) ) has boiling point equal to 134
